# experimental-protocol: chemical genetic growth profiling, strain panel (AID 1159580);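 note: tested at 20 µM; growth read once vehicle control cultures reached saturation at 30 °C; 1 = growth at the plate median or of vehicle wells; lower values mean less growth of the strain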
# protocol-conditions: S. cerevisiae deletion strains, growth OD, locus YER015W, strain faa2, active compounds read low
The whole screen tested about 5,500 compounds, of which about 2,000 (36%) were called active. About 18% were inconclusive and are not listed. This is one part of the list.
Below, each entry is listed with its recorded normalized growth.

| molecule | normalized growth |
| --- | --- |
| CC1CC[C@]2(NC1)O[C@H]1CC3C4CC[C@H]5C[C@@H](O)CC[C@]5(C)C4CC[C@]3(C)[C@H]1[C@@H]2C (some centres undefined) | 0.118 |
| C[C@@H]1CC[C@@]2(NC1)O[C@H]1C[C@H]3C4CC=C5C[C@@H](O)CC[C@]5(C)C4CC[C@]3(C)C1[C@@H]2C (some centres undefined) | 0.0893 |
| CC1CCC2(OC1)OC1CC3C4CC[C@H]5C[C@@H](O)CC[C@]5(C)C4CC(=O)[C@]3(C)C1C2C (some centres undefined) | 1 |
| CC1CC[C@@]2(OC1)O[C@H]1CC3C4CC[C@@H]5C[C@@H](O)CC[C@]5(C)C4CC[C@]3(C)[C@H]1[C@@H]2C (some centres undefined) | 1.03 |
